The measurements presented in this section are drawn from paper PMC13607727.

Biological target: 2019-nCoV S-RBD (Severe acute respiratory syndrome coronavirus 2, UniProt P0DTC2)
Format: binding, SARS-CoV-2
Conditions: read-out: KD
Counter-ions that a name gives are not always drawn.
assay metric: Kd (µM)
I only need the number, in µM, no unit after it.

Lookup: Tell me Kd reported for CCCCCCCCC=CCCCCCCCC(=O)OCC(C[N+](C)(C)C)OC(=O)CCCCCCCC=CCCCCCCCC (centres unmarked) [DOTAP, DOTAP chloride]
Found: 79

Lookup: Tell me Kd reported for CC(OC(=O)OC1CCCCC1)OC(=O)C1=C(CSc2nnnn2CC[NH+](C)C)CSC2C(NC(=O)Cc3csc(N)n3)C(=O)N12 (centres unmarked) [CTM-HCl, cefotiam hexetil hydrochloride]
Found: 142
